These measurements were taken from paper PMC7156458.

- TGT: Aβ42 (Homo sapiens, UniProt P05067)
- Sequence (P05067 672-713): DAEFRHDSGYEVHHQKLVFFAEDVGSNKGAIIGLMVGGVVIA
- TEST: Th-T (thioflavin-T) assay of Aβ42 aggregation
- Type: biochemical
- STUDY_CONDITIONS: measurement M6; source data, Ab alone and No Ab as controls
Th-T assay plate reading, mean of three wells (Supplementary Fig. 47) strictly under 0.4 means T; at 0.4 or over means F.

Known results for molecules:
C=C1CCC2C(C)(CCC=C(C)C)C(O)CCC2(C)C1Cc1c(OC)oc(C)c(C(=O)OC)c1=O (stereo not shown) : T
C=C1CC[C@H]2[C@]3(C)C[C@H](C=C(C)C)O[C@H]3CC[C@]2(C)[C@@H]1Cc1c(OC)oc(CO)c(C)c1=O : T
C=C1CC[C@H]2[C@]3(C)C[C@@H](C=C(C)C)O[C@H]3CC[C@]2(C)[C@@H]1Cc1c(OC)oc(CO)c(C)c1=O : F
C=C1CCC2C(C)(CCC=C(C)C)C(O)CCC2(C)C1Cc1c(O)c(C)c(C)oc1=O (stereo not shown) [Compound 9, higginsianin B] : T
C=C1CCC2C(C)(CCC=C(C)C)C(O)CCC2(C)C1Cc1c(OC)oc(CO)c(C)c1=O (stereo not shown) : T
C=C1CCC2C(C)(CC(=O)C=C(C)C)C(O)CCC2(C)C1Cc1c(O)c(C)c(C)oc1=O (stereo not shown) : F

We next turn to a different molecule, shown below.
Qu. Threshold test, Th-T assay plate reading, mean of three wells (Supplementary Fig. 47) < 0.4: C=C1CC[C@@H]2[C@](C)(CC[C@H]3O[C@H](C=C(C)C)C[C@@]23C)[C@@H]1Cc1c(O)c(C)c(C)oc1=O
Ans. F

----------
- TGT: UniProt P05067
- TEST: Th-T (thioflavin-T) assay of Aβ42 aggregation
- Assay type: biochemical
- STUDY_CONDITIONS: compound at 50; reading M48 of time course
MEASUREMENT_KIND: Th-T fluorescence, mean of three wells

C=C1CC[C@@H]2[C@](C)(CC[C@H]3O[C@H](C=C(C)C)C[C@@]23C)[C@@H]1Cc1c(OC)oc(CO)c(C)c1=O [Compound 20] : 2.125
C=C1CCC2C(C)(CCC=C(C)C)C(O)CCC2(C)C1Cc1c(OC)oc(CO)c(C(=O)OC)c1=O (centres unmarked) [Compound 13] : 0.4625
C=C1CCC2C(C)(CCC=C(C)C)C(O)CCC2(C)C1Cc1c(OC)oc(CO)c(C)c1=O (centres unmarked) [Compound 12] : 1.494

Qu. Any idea what its Th-T fluorescence, mean of three wells is? The compound is C=C1CC[C@@H]2[C@](C)(CC[C@H]3O[C@H](C=C(C)C)C[C@@]23C)[C@@H]1Cc1c(OC)oc(CO)c(C(=O)OC)c1=O [Compound 21]
Ans. 0.2151

Qu. Any idea what its Th-T fluorescence, mean of three wells is? The compound is C=C1CCC2C(C)(CCC=C(C)C)C(O)CCC2(C)C1Cc1c(OC)oc(C)c(C(=O)OC)c1=O (centres unmarked) [Compound 14]
Ans. 5.128

----------
- TGT: Aβ42 (Homo sapiens)
- TEST: Th-T (thioflavin-T) assay of Aβ42 aggregation
- Format: biochemical
- STUDY_CONDITIONS: concentration 10, unit not given; time-course reading M140
MEASUREMENT_KIND: Th-T fluorescence of Aβ42 with compound, mean of three wells (Fig. 7a source data)

Here is how some compounds turned out for Th-T fluorescence of Aβ42 with compound, mean of three wells (Fig. 7a source data).
C=C1CC[C@@H]2[C@](C)(CC[C@H]3O[C@H](C=C(C)C)C[C@@]23C)[C@@H]1Cc1c(OC)oc(CO)c(C(=O)OC)c1=O : 1.723
C=C1CCC2C(C)(CCC=C(C)C)C(O)CCC2(C)C1Cc1c(OC)oc(CO)c(C)c1=O (centres unmarked) : 2.265
C=C1CCC2C(C)(CCC=C(C)C)C(O)CCC2(C)C1Cc1c(OC)oc(CO)c(C(=O)OC)c1=O (centres unmarked) : 1.544
C=C1CCC2C(C)(CCC=C(C)C)C(O)CCC2(C)C1Cc1c(OC)oc(C)c(C(=O)OC)c1=O (centres unmarked) : 2.924

Qu. What Th-T fluorescence of Aβ42 with compound, mean of three wells (Fig. 7a source data) appears in the records for this compound with Aβ42 (Homo sapiens)? C=C1CC[C@@H]2[C@](C)(CC[C@H]3O[C@H](C=C(C)C)C[C@@]23C)[C@@H]1Cc1c(OC)oc(CO)c(C)c1=O
Ans. 3.158

----------
The entries below are paired with their reported IC50.
- Tested on: DL1 cells
- TEST: cytotoxicity in Drosophila DL1 cells
- Format: cell-based
- STUDY_CONDITIONS: Drosophila melanogaster, DL1 cells, cytotoxicity, average of two replicates; read-out: IC50 Average
Answer with a number only, understood to be in nM.

C=C1CC[C@@H]2[C@](C)(CC[C@H]3O[C@H](C=C(C)C)C[C@@]23C)[C@@H]1Cc1c(O)c(C)c(C)oc1=O [Compound 10, higginsianin A] : 133
C=C1CCC2C(C)(CCC=C(C)C)C(=O)CCC2(C)C1Cc1c(O)c(C)c(C)oc1=O (centres unmarked) [Compound 8] : 5020
C=C1CCC2C(C)(CC(=O)C=C(C)C)C(O)CCC2(C)C1Cc1c(O)c(C)c(C)oc1=O (centres unmarked) [Compound 7] : 8750
C=C1CCC2C(C)(CCC=C(C)C)C(O)CCC2(C)C1Cc1c(OC)oc(CO)c(C)c1=O (centres unmarked) [Compound 12] : 342
C=C1CC[C@@H]2[C@](C)(CC[C@H]3O[C@H](C=C(C)C)C[C@@]23C)[C@@H]1Cc1c(OC)oc(CO)c(C)c1=O [Compound 20] : 269

Qu. Any idea what its IC50 is? The molecule is C=C1CC[C@H]2[C@]3(C)C[C@H](C=C(C)C)O[C@H]3CC[C@]2(C)[C@@H]1Cc1c(OC)oc(C)c(C)c1=O [Compound 24]
Ans. 242

Qu. Any idea what its IC50 is? The molecule is C=C1CC[C@H]2[C@]3(C)C[C@H](C=C(C)C)O[C@H]3CC[C@]2(C)[C@@H]1Cc1c(O)c(C)c(C)oc1=O [Compound 6, subglutinol B]
Ans. 234

Qu. Any idea what its IC50 is? The molecule is C=C1CC[C@H]2[C@]3(C)C[C@@H](C=C(C)C)O[C@H]3CC[C@]2(C)[C@@H]1Cc1c(OC)oc(CO)c(C)c1=O [Compound 17]
Ans. 2780

----------
- TGT: Aβ42 (Homo sapiens, UniProt P05067)
- TEST: Th-T (thioflavin-T) assay of Aβ42 aggregation
- Assay type: biochemical
- STUDY_CONDITIONS: compound at 20; reading M62 of time course
Th-T fluorescence, mean of three wells strictly under 2 means yes; at 2 or over means no.

Known results for compounds:
C=C1CC[C@@H]2[C@](C)(CC[C@H]3O[C@H](C=C(C)C)C[C@@]23C)[C@@H]1Cc1c(OC)oc(CO)c(C)c1=O : no
C=C1CCC2C(C)(CCC=C(C)C)C(O)CCC2(C)C1Cc1c(OC)oc(CO)c(C)c1=O (centres unmarked) : no
C=C1CCC2C(C)(CCC=C(C)C)C(O)CCC2(C)C1Cc1c(OC)oc(C)c(C(=O)OC)c1=O (centres unmarked) : no
C=C1CC[C@@H]2[C@](C)(CC[C@H]3O[C@H](C=C(C)C)C[C@@]23C)[C@@H]1Cc1c(OC)oc(CO)c(C(=O)OC)c1=O : yes

Qu. Threshold test, Th-T fluorescence, mean of three wells < 2: C=C1CCC2C(C)(CCC=C(C)C)C(O)CCC2(C)C1Cc1c(OC)oc(CO)c(C(=O)OC)c1=O (centres unmarked)
Ans. yes

----------
- TGT: Aβ42 (Homo sapiens, UniProt P05067)
- TEST: Th-T (thioflavin-T) assay of Aβ42 aggregation
- Format: biochemical
- STUDY_CONDITIONS: head suffix _10 (concentration 10); reading M75
MEASUREMENT_KIND: Th-T fluorescence of Aβ42 (sheet Fig. 7a), mean of three wells
The reply should be a number, written without any unit.

Here is how some compounds turned out for Th-T fluorescence of Aβ42 (sheet Fig. 7a), mean of three wells.
C=C1CC[C@@H]2[C@](C)(CC[C@H]3O[C@H](C=C(C)C)C[C@@]23C)[C@@H]1Cc1c(OC)oc(CO)c(C)c1=O : 3.393
C=C1CCC2C(C)(CCC=C(C)C)C(O)CCC2(C)C1Cc1c(OC)oc(C)c(C(=O)OC)c1=O (centres unmarked) : 2.779
C=C1CCC2C(C)(CCC=C(C)C)C(O)CCC2(C)C1Cc1c(OC)oc(CO)c(C(=O)OC)c1=O (centres unmarked) : 1.561
C=C1CCC2C(C)(CCC=C(C)C)C(O)CCC2(C)C1Cc1c(OC)oc(CO)c(C)c1=O (centres unmarked) : 3.295

# next compound below
Qu. What Th-T fluorescence of Aβ42 (sheet Fig. 7a), mean of three wells appears in the records for this compound with Aβ42 (Homo sapiens, UniProt P05067)? C=C1CC[C@@H]2[C@](C)(CC[C@H]3O[C@H](C=C(C)C)C[C@@]23C)[C@@H]1Cc1c(OC)oc(CO)c(C(=O)OC)c1=O
Ans. 0.8711
